- System: Hepatic stellate cell strain LX-2
- protocol.summary: In vitro effect on expression of LX-2 cell activation marker α-SMA (Western Blot, β-actin reference)
- Type: cell-based
- test.settings: LX-2 cells, 10.0 uM, 48 hours, negative control = 100%
Starred links: 1 amine or outer side, 2 acyl side, 3 side chain; linkers in the order of their positions; H or OH if unused. Non-standard residues stand in square brackets, D forms with d. Groups on a side chain read outwards from the residue. Primed or numbered codes have the meaning given here. No end group written: not given here. *: point of attachment. C18 diacid = O=C(O)CCCCCCCCCCCCCCCCC(=O)*; C16 diacid = O=C(O)CCCCCCCCCCCCCCC(=O)*; γGlu = O=C(O)[C@H](CCC(=O)[*:2])N[*:1]; Palmitoyl = CCCCCCCCCCCCCCCC(=O)*; PEG2′ = not defined here
I'd be grateful if you could share measured Relative expression of α-SMA (α-SMA/β-actin, %) for these entries.
// return numeric value only (unit: %, not printed)

I'd like to know its Relative expression of α-SMA (α-SMA/β-actin, %). The substance in question is His-(D-Ser)-Gln-Gly-Thr-Phe-Thr-Ser-Asp-Tyr-Ser-Lys-Tyr-Leu-Asp-Glu-Lys(PEG2-PEG2-γGlu-CO(CH2)16CO2H)-Ala- Ala-His-Asp-Phe-Val-Glu-Trp-Leu-Leu-Asn-Gly-Gly-Gly-Pro-Ser-Ser-Gly-Ala-Pro-Pro-Pro-Ser-NH2 (H[dS]QGTFTSDYSKYLDEK([PEG2′-PEG2′-γGlu-C18 diacid])AAHDFVEWLLNGGGPSSGAPPPS-NH2) [Compound 9]
40.89

I'd like to know its Relative expression of α-SMA (α-SMA/β-actin, %). The substance in question is His-(D-Ser)-Gln-Gly-Thr-Phe-Thr-Ser-Asp-Tyr-Ser-Lys-Tyr-Leu-Asp-Glu-Lys-Ala-Ala-Lys(PEG2-PEG2-γGlu- CO(CH2)16CO2H)-Glu-Phe-Ile-Glu-Trp-Leu-Leu-Arg-Thr-Gly- Gly-Pro-Ser-Ser-Gly-Ala-Pro-Pro-Pro-Ser-NH2 (H[dS]QGTFTSDYSKYLDEKAAK([PEG2′-PEG2′-γGlu-C18 diacid])EFIEWLLRTGGPSSGAPPPS-NH2) [Compound 8]
39.92

I'd like to know its Relative expression of α-SMA (α-SMA/β-actin, %). The substance in question is His-(D-Ser)-Gln-Gly-Thr-Phe-Thr-Ser-Asp-Tyr-Ser-Lys-Tyr-Leu-Asp-Glu-Lys-Ala-Ala-Lys(PEG2-PEG2-γGlu-CO(CH2)14CO2H)-Glu-Phe-Ile-Glu-Trp-Leu-Leu-Asn-Gly- Gly-Gly-Pro-Ser-Ser-Gly-Ala-Pro-Pro-Pro-Ser-NH2 (H[dS]QGTFTSDYSKYLDEKAAK([PEG2′-PEG2′-γGlu-C16 diacid])EFIEWLLNGGGPSSGAPPPS-NH2) [Compound 13]
40.46

I'd like to know its Relative expression of α-SMA (α-SMA/β-actin, %). The substance in question is His-(D-Ser)-Gln-Gly-Thr-Phe-Thr-Ser-Asp-Tyr-Ser-Lys-Tyr-Leu-Asp-Lys-Lys(PEG2-PEG2-γGlu-CO(CH2)14CH3)-Arg-Ala- Gln-Asp-Phe-Val-Gln-Trp-Leu-Met-Asn-Thr-Gly-Gly-Pro-Ser-Ser-Gly-Ala-Pro-Pro-Pro-Ser-NH2 (H[dS]QGTFTSDYSKYLDKK([PEG2′-PEG2′-γGlu-Palmitoyl])RAQDFVQWLMNTGGPSSGAPPPS-NH2) [Compound 16]
40.86
